tested_target: Interleukin-8 (IL8, CXCL8), C-terminal His-tagged (Homo sapiens, UniProt P10145 SEQ:1-72)
Sequence (P10145 28-99): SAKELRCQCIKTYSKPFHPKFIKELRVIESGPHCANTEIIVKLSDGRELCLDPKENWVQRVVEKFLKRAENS
assay_remarks: inhibition; inhibition of IL8 binding to CXCR1 cells, 5 nM IL8, protein limited; neutrophil migration 3 nM (Table 35)
reported_conditions: tags: C-terminal His (Sino Biological); stem-loop
parameter_measured: pIC50
The meaning of pIC50 here: minus log10 of the concentration in molar units.

Give the measured pIC50 of UGAUGACGGUAGAUUACGGGUAGAGUGACCGCAUCU (ssRNA, 2'-F G; 2'-OMe A,C,U; 5' C6NH2; 3' idT) [Aptamer 3] .
8.52

Where do these numbers come from? They come from patent US20210230599.
